B1: TMEM175 (parent)
chain: QTSAFARQPRDELERVRVSCTIIF

- Variants of: B1
- protocol notes: protein stability index of a GFP-peptide fusion (GPS, HEK-293T) (PSI 1-6); higher = more stable;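 further: lentivirally expressed fusions sorted by FACS into six bins by GFP to DsRed ratio, PSI derived from sequencing read proportions per bin multiplied by bin number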
- condition description: c terminus: a fixed tail appended
parameter: protein stability index

>  <mutation spec>
I22R

>  <test result>
2.42

$$$$
>  <mutation spec>
P9R

>  <test result>
1.91

$$$$
>  <mutation spec>
R15N

>  <test result>
4.18

$$$$
>  <mutation spec>
I23L

>  <test result>
1.82

$$$$
>  <mutation spec>
T21S

>  <test result>
2.3

$$$$
>  <mutation spec>
R7M

>  <test result>
2.66

$$$$
>  <mutation spec>
S19F

>  <test result>
1.57

$$$$
>  <mutation spec>
I22M

>  <test result>
1.88

$$$$
>  <mutation spec>
A6V

>  <test result>
2.9

$$$$
>  <mutation spec>
A4I

>  <test result>
1.96

$$$$
>  <mutation spec>
Q8M

>  <test result>
3.58

$$$$
>  <mutation spec>
E14F

>  <test result>
3.09

$$$$
>  <mutation spec>
D11N

>  <test result>
3.52

$$$$
>  <mutation spec>
R15M

>  <test result>
2.04

$$$$
>  <mutation spec>
R10M

>  <test result>
2.35

$$$$
>  <mutation spec>
F5S

>  <test result>
1.94

$$$$
>  <mutation spec>
E12W

>  <test result>
1.9

$$$$
>  <mutation spec>
T21Y

>  <test result>
1.34

$$$$
>  <mutation spec>
F5L

>  <test result>
1.9

$$$$
>  <mutation spec>
S19C

>  <test result>
1.97

$$$$
>  <mutation spec>
S19A

>  <test result>
1.55

$$$$
>  <mutation spec>
R15L

>  <test result>
3.73

$$$$
>  <mutation spec>
T21C

>  <test result>
2.27

$$$$
>  <mutation spec>
I22Q

>  <test result>
2.62

$$$$
>  <mutation spec>
I23F

>  <test result>
3.33

$$$$
>  <mutation spec>
C20W

>  <test result>
2.42

$$$$
>  <mutation spec>
C20Y

>  <test result>
1.83

$$$$
>  <mutation spec>
F5Y

>  <test result>
2.54

$$$$
>  <mutation spec>
C20H

>  <test result>
1.57

$$$$
>  <mutation spec>
T21H

>  <test result>
2.12

$$$$
>  <mutation spec>
R17S

>  <test result>
2.35

$$$$
>  <mutation spec>
V16E

>  <test result>
2.22

$$$$
>  <mutation spec>
A6R

>  <test result>
1.84

$$$$
>  <mutation spec>
E12F

>  <test result>
1.76

$$$$
>  <mutation spec>
I23N

>  <test result>
2.37

$$$$
>  <mutation spec>
T21Q

>  <test result>
1.58

$$$$
>  <mutation spec>
L13N

>  <test result>
1.55

$$$$
>  <mutation spec>
F24A

>  <test result>
2.02

$$$$
>  <mutation spec>
V16M

>  <test result>
1.16

$$$$
>  <mutation spec>
Q1S

>  <test result>
2.17

$$$$
